System: OVCAR-8
Assay: NCI tumour cell line growth inhibition, 48 h
Calls of active or inactive are those of the source. Rule as the data show it: active = GI50 up to about 1.1 µM and inactive = higher.
Classes used: active, inactive

# molecule, label-value
rows = [
    ("CN1CCN(C(=S)N(C(=O)c2ccco2)C2CCCCC2)CC1", "inactive"),
    ("COc1ccc(-c2c(N)[n+]([O-])c3ccccc3[n+]2[O-])cc1OC", "inactive"),
    ("N=C(N)N/N=C/c1c(-c2ccc(Cl)cc2)nc2n1CCS2", "inactive"),
    ("O=C(CC(C(=O)c1ccsc1)c1cccs1)c1cccs1 (stereo unspecified)", "inactive"),
    ("C=C1C(=O)OC2CC3(C)C=CC(=O)C(=C)C3CC12 (stereo unspecified)", "inactive"),
    ("Cc1cc(C#N)c(Nc2ccc(F)cc2[N+](=O)[O-])s1", "inactive"),
    ("N=C(N)NS(=O)(=O)c1ccc(NC(=O)c2cccc3c(NNc4ccc(S(=O)(=O)N=C(N)N)cc4)c4ccccc4nc23)cc1", "inactive"),
    ("Cc1ccc(NC(=O)c2ccccc2C(=O)O)cc1C", "inactive"),
    ("COc1ccc(-c2sc(Br)c3c2C(=O)C2OC(=O)NC32)cc1OC (stereo unspecified)", "inactive"),
    ("FC(F)(F)c1ccc2c(c1)nc(Cc1ccc(Cl)cc1)n2CC1CCCN2CCCCC12 (stereo unspecified)", "inactive"),
    ("COc1cc2c(c(OC)c1OC)-c1ccc(SC)c(=O)cc1[C@@H](NCc1ccccc1[N+](=O)[O-])CC2", "active"),
    ("CCOC(=O)/C=C/CCO[Si](C)(C)C(C)(C)C", "inactive"),
    ("NC(=O)c1ncn(Cc2ccccc2)c1CNC(N)=S", "inactive"),
    ("COc1cc(C2c3cc4c(cc3OC(N3CCCC3)C2C)OCO4)cc(OC)c1O (stereo unspecified)", "inactive"),
    ("CCCCN(CCCC)C(=O)C(=O)C(C(=O)c1ccc(OC)cc1)c1ccc(OC)cc1 (stereo unspecified)", "inactive"),
    ("CC1=C(C(=O)NCC(C)O)CC(C(=O)NCC(C)O)=C(C)N1 (stereo unspecified)", "inactive"),
    ("COc1ccc(/C=C2\\Sc3nnc(C)n3N=C2c2cc(F)c(Cl)cc2Cl)cc1OC", "inactive"),
    ("O=c1c2ncn(C3CCCO3)c2n(-c2ccccc2)c(=S)n1-c1ccccc1 (stereo unspecified)", "inactive"),
    ("COc1ccc2[nH]c3c([N+](=O)[O-])ccc(NCCN(C)C)c3/c(=N/CCN(C)C)c2c1", "active"),
    ("O=[N+]([O-])c1ccc2c(c1)/C(=N/N=C1c3ccccc3Cc3ccccc31)c1cc([N+](=O)[O-])cc([N+](=O)[O-])c1-2", "inactive"),
    ("c1ccc(-c2c(-c3cccs3)[nH]c(-c3cccs3)c2-c2ccccn2)nc1", "inactive"),
]

====

System: NCI-H522
Assay: NCI tumour cell line growth inhibition, 48 h
The source made the active and inactive calls. Rule as the data show it: active = GI50 up to about 1.1 µM and inactive = higher.
Outcomes: yes for active, no for inactive

# molecule, label-value
records = [
    ("[N-]=[N+]=NI1OC(C(F)(F)F)(C(F)(F)F)c2ccccc21", "no"),
    ("CCNc1nc2c(=O)n(C)c(=O)n(C)c2s1", "no"),
    ("CCN(CC(O)COc1ccc2c(c1)[n+]([O-])nc(N)[n+]2[O-])C(C)=O (stereo not given)", "no"),
    ("COc1cc2c(c(OC)c1OC)-c1ccc(OC)c(=O)cc1[C@@H](NC(C)=O)CC2 [COLCHICINE]", "yes"),
    ("O=[N+]([O-])c1cc(C(F)(F)F)cc([N+](=O)[O-])c1CCl", "yes"),
]

====

Test system: HCT-116
Test: NCI tumour cell line growth inhibition, 48 h
Activity calls are given as the source filed them. No stated cut-off is given here; in the data, active = GI50 up to about 1.1 µM and inactive = higher.
Possible outcomes: active, inactive

# compound, label-value
measured = [
    ("C[C@]12CC[C@H](O)CC1=CC[C@@H]1[C@@H]2CC[C@]2(C)NC(=O)/C(=C\\c3ccccc3)C[C@@H]12", "inactive"),
    ("C[C@@]12C(=O)OC(=O)[C@]1(C)[C@H]1CC[C@@H]2O1", "inactive"),
    ("COc1cccc(/C(C=O)=C(\\Cl)c2ccc(OC)c(OC)c2)c1", "inactive"),
    ("Cc1cc(Nc2ccc(S(=O)(=O)O)c3cc(S(=O)(=O)O)cc(S(=O)(=O)O)c23)c2ccccc2n1", "inactive"),
    ("CC1=CC(=O)N(c2c(C)cccc2Cl)C(C)N1 (stereo not drawn)", "inactive"),
    ("COc1ccc(/C=C2\\Sc3nnc(C)n3N=C2c2cc(F)c(Cl)cc2Cl)cc1OC", "inactive"),
    ("O=C(N[C@@H](Cc1ccccc1)B(O)O)[C@H](Cc1cccc2ccccc12)NC(=O)N1CCOCC1", "active"),
    ("O=C1c2ccccc2-c2nnc3c(c21)Cc1ccccc1C3", "inactive"),
    ("NNc1[nH]c(=S)[nH]c1C(N)=O", "inactive"),
    ("CN(C)c1nc(NN)c2c(-c3ccccc3)c(-c3ccccc3)oc2n1", "inactive"),
    ("C=C(C)C(=O)O[C@H]1C/C(CO)=C/CCC(=C)C(OC(C)=O)[C@H]2OC(=O)C(=C)[C@H]12 (stereo partly drawn)", "inactive"),
    ("CC1=CC(C)(C)NN1C1=NS(=O)(=O)c2ccccc2N1C", "inactive"),
    ("CCOP(=O)(OCC)C(C(=O)OC)C(=O)C(=O)Nc1cccc([N+](=O)[O-])c1 (stereo not drawn)", "inactive"),
    ("COC(OC)C(C)CC(=O)N(C)C (stereo not drawn)", "inactive"),
    ("c1ccc(C(=NCCC2CNc3ccccc32)c2ccccc2)cc1 (stereo not drawn)", "inactive"),
    ("Cc1cccc2nc(-c3ccccc3)cc(=O)n12", "inactive"),
    ("O=C1CC2[C@@H](N3CCCC3)CCC(N1Cc1ccccc1)C2(O)O (stereo partly drawn)", "inactive"),
    ("O=C1NC2(CCCCC2)C(=O)N1CCN(CCCl)CCCl", "inactive"),
    ("C=C1C=CC2(Br)OC3CC(C)(Cl)C(Br)CC13C2(C)C (stereo not drawn)", "inactive"),
    ("O=C1NI(C#Cc2ccccc2)c2ccccc21", "inactive"),
    ("O=C(O)C1SCCS1", "inactive"),
    ("CCN(CC(O)COc1ccc2c(c1)[n+]([O-])nc(N)[n+]2[O-])C(C)=O (stereo not drawn)", "inactive"),
    ("CN1C(=O)C(=CNc2ccccc2Cl)C(=O)N(C)C1=O", "inactive"),
    ("COc1cc(OC)c2c(O)cc(CC(C)O)cc2c1 (stereo not drawn)", "inactive"),
    ("CNC1C(OC2C(OC3C(O)C(O)C(O)C(O)C3O)OC(C)C2(O)CO)OC(CO)C(O)C1O.N=C(N)N.NC(=O)O (stereo not drawn)", "inactive"),
    ("FC(F)(F)c1ccc2c(c1)nc(Cc1ccc(Cl)cc1)n2CC1CCCN2CCCCC12 (stereo not drawn)", "inactive"),
    ("NC(=S)N/N=C1\\CCCCC1C(O)(C(F)(F)Cl)C(F)(F)Cl (stereo not drawn)", "inactive"),
    ("CCC(=O)COc1ccc(NC(NC(=O)C(C(F)(F)F)C(F)(F)F)(C(F)(F)F)C(F)(F)F)cc1", "inactive"),
    ("Cc1csc2nc(-c3cccc([N+](=O)[O-])c3)c(/C=N/N=C(N)N)n12", "inactive"),
    ("CCOC(=O)C1C=C2O[C@@H]3OC4(CCCCC4)O[C@@H]3C2C2C(=O)CCC(=O)[C@@]12C(=O)OC (stereo partly drawn)", "inactive"),
    ("COc1ccc2c(c1)C(=O)C(=O)c1cc(O)c(OC)c(OC)c1-2", "active"),
    ("C=CCOC(=O)c1c(C)[n+]([O-])c2cc(Cl)c(Cl)cc2[n+]1[O-]", "inactive"),
    ("O=C(Nc1cc(Cl)c(Cl)cc1Cl)C(=O)C1C(=O)NC(=S)NC1=O", "inactive"),
    ("CCCCCCCCCCCCCCCCCC(=O)OCC(COC1OC(COP(=O)(O)O)C(O)C(O)C1O)OC(=O)CCCCCCCCCCCCCCCCC (stereo not drawn)", "inactive"),
    ("Clc1ccc2ns[s+]c2c1", "active"),
    ("Cc1cc(O)c2c(c1)C(=O)C=C(Br)C2=O", "inactive"),
    ("O=C1CC(O)c2cscc21 (stereo not drawn)", "inactive"),
    ("CCOC1Oc2ccccc2-c2nc(SC)ncc21 (stereo not drawn)", "inactive"),
    ("C/C(=C\\c1ccccn1)c1ccccn1", "inactive"),
    ("Cc1cn(C2CC(n3cc(Cn4cc(I)c(=O)[nH]c4=O)nn3)C(CO)O2)c(=O)[nH]c1=O (stereo not drawn)", "inactive"),
    ("CC(C)(C)C(=O)OCC1CCC(n2cnc3c(=O)[nH]c(N)nc32)O1 (stereo not drawn)", "inactive"),
    ("O=C1CC(c2ccccc2Cl)C2(C(=O)NC(=S)NC2=O)C(c2ccccc2Cl)C1 (stereo not drawn)", "inactive"),
    ("CCOP(C)(=O)C(Nc1ccc(F)cc1)c1ccc(F)cc1 (stereo not drawn)", "inactive"),
]
